# reported melting point; entries follow

O=C(Oc1ccccc1)C1=C(O)CCn2c1nc1ccccc12 :: 176 to 178 °C
O=S(CCCCCOc1ccc(C2=C(c3ccccc3)CCCc3cc(O)ccc32)cc1)Cc1ccccc1 (centres undefined) :: 196 °C
CCNC(=O)n1nc(Oc2ccc(C#N)cc2C(F)(F)F)cc1C :: 103 to 105 °C
COc1ccc(CC(=O)NC(NC(=NC#N)Nc2cccc3ncccc23)C(C)(C)C)cc1OC (centres undefined) :: 128 to 129 °C
COC(=O)C[C@H]1COS(=O)(=O)N1C(=O)OCC1c2ccccc2-c2ccccc21 :: 138 to 140 °C

Sure, the documented melting point for Nc1cc(C(F)(F)C(F)(F)C(F)(F)C=CC(F)(F)C(F)(F)C(F)(F)c2ccc(O)c(N)c2)ccc1O is 187 to 188 °C

Value of melting point reported for the compound CC(C)c1ccc2c(c1)OC1(O)c3ccccc3C(=O)C21N (centres undefined) is 151 to 152 °C

Reported melting point of COCCOc1cc(N(C)S(=O)(=O)c2ccccn2)c2[nH]c(C3=NCC(CN4CCS(=O)(=O)CC4)S3)cc2c1 (centres undefined) : 115 °C

GET /value?item= O=S(=O)(Nc1ccc2c(OCc3ccc(-c4ccc(Cl)c(Cl)c4)cc3Cl)cccc2c1)C(F)(F)F &field=melting point returns 169 to 170 °C

The compound COc1cccc(CCNC(=O)Cc2cccs2)c1 showed melting point equal to 50 °C

---

test.readout: melting point

Some solved entries appear below for comparison.
CC(=O)OCc1nn(-c2ccc(F)cc2)c2c1CCCC2Cc1cccc2ccccc12 (stereo not given) :: 142 to 144 °C
COC(=O)C1=Cc2cc(Cl)ccc2OC1 :: 106 to 109 °C
O=C(Nc1cn(C2CCCCO2)nc1C(=O)NCCCOc1ccccc1)c1ccccn1 (stereo not given) :: 106 to 107 °C

Quick note, melting point for COc1ccc(OC)c2nc(Cl)c(CCCl)cc12 landed at 108 to 110 °C

CS(=O)(=O)OCCCC(c1ccccc1)c1ccccc1 yielded melting point of 85 to 88 °C

Documented melting point of COc1cc(OC)cc(-c2nc(CCOc3ccc(C[C@H](OC)C(=O)O)c4sccc34)c(C)o2)c1 : 194 to 195 °C

Note to self: melting point recorded for CCOC(=O)/C=C/c1nc(-c2ccccc2)oc1COc1ccc(OCc2nc(-c3ccccc3)oc2C)cc1 was 107 to 108 °C

Reported melting point of Cn1c(Cc2c(F)cccc2F)nnc1C(N)=O : 189 to 190 °C

O=C(CN1CCCC1=O)NCC(=O)Nc1ccncc1 yielded melting point of 243 to 245 °C

Short answer for O=C(O)Cc1ccc(C2CCCC(=O)C2)cc1 (stereo not given) : melting point was 96 °C

The measured melting point associated with Nc1nc(-c2ccc(Cl)cc2F)nc(C(=O)O)c1Cl reads 194 to 196 °C

Sure, the documented melting point for COCOc1ccc(C=CC(C)=O)cc1OC is 73 to 75 °C

Memo: CC1(C(=O)O)CCc2c(-c3ccc(Cl)cc3)noc2C1 (stereo not given) , reported melting point: 169 to 170 °C

Form: compound = Cc1cc(C)nc(N(CCN(C(C)C)C(C)C)C(N)=O)n1 ; melting point = 134 to 136 °C

GET /value?item= CC(CO)Nc1c(F)cc2c(=O)c(C(=O)O)cn(-c3cc(N)c(F)cc3F)c2c1Cl (stereo not given) &field=melting point returns 153 to 158 °C
